Target: T1, rhNR10 (recombinant human NR10) (human, UniProt Q8NI17 20-519, limits assumed)
T1 construct: also called IL-31 receptor; IL31RA
T1 sequence: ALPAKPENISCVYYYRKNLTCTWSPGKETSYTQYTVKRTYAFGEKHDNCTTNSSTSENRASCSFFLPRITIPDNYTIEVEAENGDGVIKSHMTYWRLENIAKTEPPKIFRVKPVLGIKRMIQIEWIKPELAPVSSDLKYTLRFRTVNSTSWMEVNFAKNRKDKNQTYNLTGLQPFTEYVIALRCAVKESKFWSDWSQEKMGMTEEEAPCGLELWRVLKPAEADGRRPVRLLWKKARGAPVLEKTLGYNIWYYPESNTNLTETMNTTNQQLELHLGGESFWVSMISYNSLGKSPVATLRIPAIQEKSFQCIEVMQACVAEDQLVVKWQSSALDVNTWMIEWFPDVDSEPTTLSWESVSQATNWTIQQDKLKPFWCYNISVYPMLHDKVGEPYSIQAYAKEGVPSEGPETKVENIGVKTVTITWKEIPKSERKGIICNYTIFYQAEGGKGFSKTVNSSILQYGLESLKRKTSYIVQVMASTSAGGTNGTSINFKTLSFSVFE
Test: SPR, Biacore T100; antibody captured on Protein A, rhNR10 as analyte
Test Readout: pKd
Convention used: pKd is expressed as -log10 of the molar concentration.

[
  {
    "Binder": "H0La130 (H0-SKSC / La130) (antibody, V domains shown) VH: QVQLVQSGAEVKKPGASVKVSCKASGYTFTGYIMNWVRQAPGQGLEWMGLINPYNGGTSYNQKFKGRVTITADESTSTAYMELSSLRSEDTAVYYCARDGYDDGPYTMDYWGQGTLVTVSS VL: DIQMTQSPSSLSASVGDRVTITCRTSENIYRFVAWYQQKPGKAPKLLIYNAKTLAKGVPSRFSGSGSGTDFTLTISSLQPEDFATYYCQHHYESPLTFGGGTKVEIKR",
    "pKd": 8.82
  },
  {
    "Binder": "Ha219L0 (Ha219-SKSC / L0) (antibody, V domains shown) VH: QVQLVQSGAEVKKPGASVKVSCKASGYTFTGYIMNWVRQAPGQGLEWMGLINPYNGGTSYNPKFKGRVTITADESTSTAYMELSSLRSEDTAVYYCARDGYDDGPYTMDYWGQGTLVTVSS VL: DIQMTQSPSSLSASVGDRVTITCRTSENIYSFLAWYQQKPGKAPKLLIYNAKTLAKGVPSRFSGSGSGTDFTLTISSLQPEDFATYYCQHHYESPLTFGGGTKVEIKR",
    "pKd": 8.52
  }
]

Problem: Need pKd of Ha204L0 (Ha204-SKSC / L0) (antibody, V domains shown) VH: QVQLVQSGAEVKKPGASVKVSCKASGYTFTGYIMNWVRQAPGQGLEWMGLINPYNGGTDYNQKFKGRVTITADESTSTAYMELSSLRSEDTAVYYCARDGYDDGPYTMDYWGQGTLVTVSS VL: DIQMTQSPSSLSASVGDRVTITCRTSENIYSFLAWYQQKPGKAPKLLIYNAKTLAKGVPSRFSGSGSGTDFTLTISSLQPEDFATYYCQHHYESPLTFGGGTKVEIKR , thanks.
Solution: 8.89

Problem: Please look up its pKd: H0La303 (H0-SKSC / La303) (antibody, V domains shown, also called Ls303) VH: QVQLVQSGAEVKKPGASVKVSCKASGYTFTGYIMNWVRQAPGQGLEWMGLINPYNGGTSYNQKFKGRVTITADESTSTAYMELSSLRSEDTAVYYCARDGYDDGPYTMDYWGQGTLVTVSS VL: DIQMTQSPSSLSASVGDRVTITCRTSENIYSFLAWYQQKPGKAPKLLIYNAKTLAKGVPSRFSGSGSGTDFTLTISSLQPEDFATYYCQHHYDSPLTFGGGTKVEIKR
Solution: 8.68

Problem: For Ha111L0 (Ha111-SKSC / L0) (antibody, V domains shown) VH: QVQLVQSGAEVKKPGASVKVSCKASGYTFTGYILNWVRQAPGQGLEWMGLINPYNGGTSYNQKFKGRVTITADESTSTAYMELSSLRSEDTAVYYCARDGYDDGPYTMDYWGQGTLVTVSS VL: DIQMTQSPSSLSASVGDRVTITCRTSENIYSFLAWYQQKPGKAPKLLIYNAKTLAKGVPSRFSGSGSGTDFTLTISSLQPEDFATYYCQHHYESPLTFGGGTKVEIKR , what is its reported pKd?
Solution: 8.68
